- Test system: SW-620
- test details: Growth inhibition of human SW620 cells after 48 hrs by sulforhodamine B assay
- Format: functional
- experimental setup: SW-620, 48 h
# if measured GI50 < 0.5 µM: 1  # else: -1

{"smiles": "COc1ccc(-c2c(-c3cc(OC)c4c(c3)OCO4)noc2N)cc1", "test system": "SW-620", "group": 1}
{"smiles": "COc1ccc(-c2c(-c3cc4c(c(OC)c3OC)OCO4)noc2N)cc1", "test system": "SW-620", "group": 1}
{"smiles": "COc1ccc(-c2c(-c3cc(OC)c4c(c3)OCCO4)noc2N)cc1", "test system": "SW-620", "group": 1}

INPUT: Please state whether GI50 is below 0.5 µM for `COc1ccc(-c2noc(N)c2-c2cc(OC)c3c(c2)OCO3)cc1`
OUTPUT: -1

INPUT: # TODO verify GI50 < 0.5 µM strictly for this compound: `COc1ccc(/C=C\c2cc(OC)c(OC)c(OC)c2)cc1O`
OUTPUT: 1

INPUT: Field: below-cutoff. Rule: recorded GI50 strictly less than 0.5 µM. Subject: `COc1ccc(-c2c(-c3cc(OC)c(OC)c(OC)c3)noc2N)cc1`
OUTPUT: 1

###

- Test system: MDA-MB-231
- test details: Growth inhibition of human MDA-MB-231 cells after 48 hrs by sulforhodamine B assay
- Format: functional
- experimental setup: MDA-MB-231, 48 h
Cut-off 1000 nM on GI50: below means Criterion met, at or above means Criterion not met.

{"smiles": "COc1ccc(-c2c(-c3cc(OC)c4c(c3)OCO4)noc2N)cc1", "group": "Criterion met"}

INPUT: Consider `COc1ccc(-c2noc(N)c2-c2cc(OC)c3c(c2)OCO3)cc1` . Does its GI50 lie strictly below 1000 nM?
OUTPUT: Criterion not met

INPUT: Lab note: confirm whether the reported GI50 for this compound is below 1000 nM, equality not counting. compound: `COc1ccc(-c2c(-c3cc(OC)c4c(c3)OCCO4)noc2N)cc1`
OUTPUT: Criterion met

INPUT: Determine if `COc1ccc(-c2c(-c3cc(OC)c(OC)c(OC)c3)noc2N)cc1` shows GI50 strictly lower than 1000 nM.
OUTPUT: Criterion met

INPUT: Say whether its GI50 is strictly beneath 1000 nM. Entry: `COc1ccc(-c2onc(N)c2-c2cc(OC)c3c(c2)OCO3)cc1`
OUTPUT: Criterion not met

###

- Tested on: Paracentrotus lividus
- test details: Antimitotic activity in sea urchin fertilized egg assessed as cleavage arrest treated at 8 to 20 mins post-fertilization measured at 2.5 to 5.5 hrs post-fertilization
- Assay type: functional
Catalogue of molecules with associated EC

{"smiles": "COc1ccc(-c2onc(N)c2-c2cc(OC)c3c(c2OC)OCO3)cc1", "observed value": ">4 µM"}

INPUT: Which measured EC value corresponds to `COc1ccc(-c2c(-c3cc(OC)c4c(c3OC)OCO4)noc2N)cc1` ?
OUTPUT: >5 µM

INPUT: EC lookup needed for `COc1ccc(-c2noc(N)c2-c2cc3c(c(OC)c2OC)OCO3)cc1` , thanks.
OUTPUT: >4 µM

INPUT: Sample `COc1ccc(-c2c(NC(C)=O)noc2-c2cc(OC)c3c(c2)OCO3)cc1` — what was its EC?
OUTPUT: >4 µM

INPUT: // lookup EC for `COc1ccc(-c2c(NC(C)=O)noc2-c2cc3c(c(OC)c2OC)OCO3)cc1`
OUTPUT: >4 µM

###

Listing of entries alongside the reported EC.
- Tested on: Paracentrotus lividus
- test details: Antimitotic activity in sea urchin fertilized egg assessed as cleavage alteration treated at 8 to 20 mins post-fertilization measured at 2.5 to 5.5 hrs post-fertilization
- Type: functional

{"smiles": "COc1ccc(-c2c(-c3cc(OC)c(OC)c(OC)c3)noc2N(C(C)=O)C(C)=O)cc1", "test system": "Paracentrotus lividus", "EC": "0.05 µM"}

INPUT: Kindly state the measured EC obtained for `COc1ccc(-c2c(N)noc2-c2cc(OC)c3c(c2)OCCO3)cc1` with Paracentrotus lividus.
OUTPUT: 0.005 µM

INPUT: Fill in the recorded EC for this molecule, with Paracentrotus lividus as test system: `COc1ccc(-c2c(NC(C)=O)noc2-c2cc(OC)c3c(c2)OCO3)cc1`
OUTPUT: >4 µM

INPUT: Look up EC with Paracentrotus lividus for this molecule: `COc1ccc(-c2c(-c3cc(OC)c4c(c3OC)OCO4)noc2N(C(C)=O)C(C)=O)cc1`
OUTPUT: 0.5 µM

INPUT: Which EC is reported with Paracentrotus lividus for this entry: `COc1ccc(-c2c(-c3cc4c(c(OC)c3OC)OCO4)noc2N)cc1` ?
OUTPUT: 0.02 µM

INPUT: Test system Paracentrotus lividus; read-out EC; what value for `COc1ccc(-c2c(NC(C)=O)noc2-c2cc3c(c(OC)c2OC)OCO3)cc1` ?
OUTPUT: >4 µM

INPUT: // fetch Paracentrotus lividus EC for `COc1ccc(-c2onc(N)c2-c2cc3c(c(OC)c2OC)OCO3)cc1`
OUTPUT: 4 µM

INPUT: I'm curious: which EC was measured for `COc1ccc(-c2onc(NC(C)=O)c2-c2cc(OC)c(OC)c(OC)c2)cc1` tested on Paracentrotus lividus?
OUTPUT: >4 µM

INPUT: Give recorded EC with Paracentrotus lividus for the following molecule: `COc1ccc(-c2onc(N)c2-c2cc(OC)c3c(c2OC)OCO3)cc1`
OUTPUT: >4 µM

INPUT: Under Paracentrotus lividus: EC value of `COc1ccc(-c2noc(N)c2-c2cc(OC)c3c(c2OC)OCO3)cc1` ?
OUTPUT: 4 µM
